biological target: Cannabinoid receptor 1 (Homo sapiens)
MEASURE: Ki (µM)
Give bare numbers, in µM.

Some compounds with recorded Ki:
{"STRUCTURE_AS_SMILES": "C=CCc1ccc(O)c(-c2ccc(O)c(CC=C)c2)c1", "TARGET_OF_ASSAY": "Cannabinoid receptor 1 (Homo sapiens)", "Ki, µM": 6.46}
{"STRUCTURE_AS_SMILES": "C=CCc1ccc(O)c(-c2cc(CC=C)ccc2O)c1", "TARGET_OF_ASSAY": "Cannabinoid receptor 1 (Homo sapiens)", "Ki, µM": 3.15}

query: Entry CCCc1ccc(O)c(-c2cc(CCC)ccc2O)c1 : reported Ki = ?
result: 2.26

----------
target: Cannabinoid receptor 2 (Homo sapiens, UniProt P34972); experiment: Agonist activity at recombinant human CB2 receptor expressed in CHO cells assessed as inhibition of forskolin-induced cAMP accumulation after 5 mins by cAMP-competition binding assay; assay type: functional, cell-based
Sequence (P34972 whole entry): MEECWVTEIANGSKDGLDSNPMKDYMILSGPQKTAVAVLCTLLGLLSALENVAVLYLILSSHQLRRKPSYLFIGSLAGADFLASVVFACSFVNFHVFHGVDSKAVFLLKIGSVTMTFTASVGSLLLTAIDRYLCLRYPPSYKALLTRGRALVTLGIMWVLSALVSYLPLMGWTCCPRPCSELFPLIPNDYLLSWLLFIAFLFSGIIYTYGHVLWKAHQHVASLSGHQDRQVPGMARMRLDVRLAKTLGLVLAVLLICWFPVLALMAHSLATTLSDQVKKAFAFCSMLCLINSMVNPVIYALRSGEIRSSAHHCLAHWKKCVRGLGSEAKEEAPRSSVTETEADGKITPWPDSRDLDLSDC
MEASURE: EC50 (µM)
Answers are plain numbers, in µM.

query: Entry C/C=C/c1ccc(O)c(-c2cc(/C=C/C)ccc2O)c1 : reported EC50 = ?
result: 8.73

----------
target: Cannabinoid receptor 2 (Homo sapiens); assay: Displacement of [3H]CP55,940 from recombinant human CB2 receptor expressed in CHO cells after 2 hrs by liquid scintillation counting
MEASURE: Ki (µM)
Numbers only, in µM.

Some compounds with recorded Ki:
{"COMPOUND": "C=CCc1ccc(O)c(-c2ccc(O)c(CC=C)c2)c1 [HONOKIOL]", "TARGET_OF_ASSAY": "Cannabinoid receptor 2 (Homo sapiens)", "READOUT_UNITS": "µM", "Ki": 5.61}
{"COMPOUND": "C=CCc1ccc(O)c(-c2cc(CC=C)ccc2O)c1 [MAGNOLOL]", "TARGET_OF_ASSAY": "Cannabinoid receptor 2 (Homo sapiens)", "READOUT_UNITS": "µM", "Ki": 1.44}
{"COMPOUND": "CCCc1ccc(O)c(-c2cc(CCC)ccc2O)c1", "TARGET_OF_ASSAY": "Cannabinoid receptor 2 (Homo sapiens)", "READOUT_UNITS": "µM", "Ki": 0.416}

query: Entry C/C=C/c1ccc(O)c(-c2cc(/C=C/C)ccc2O)c1 : reported Ki = ?
result: 3.14

----------
biological target: Cannabinoid receptor 1 (Homo sapiens, UniProt P21554); test: Partial agonist activity at recombinant human CB1 receptor expressed in CHO cells assessed as inhibition of forskolin-induced cAMP accumulation at 100 uM after 5 mins by cAMP-competition binding assay relative to CP55,940; format: functional, cell-based
Sequence (P21554 whole entry): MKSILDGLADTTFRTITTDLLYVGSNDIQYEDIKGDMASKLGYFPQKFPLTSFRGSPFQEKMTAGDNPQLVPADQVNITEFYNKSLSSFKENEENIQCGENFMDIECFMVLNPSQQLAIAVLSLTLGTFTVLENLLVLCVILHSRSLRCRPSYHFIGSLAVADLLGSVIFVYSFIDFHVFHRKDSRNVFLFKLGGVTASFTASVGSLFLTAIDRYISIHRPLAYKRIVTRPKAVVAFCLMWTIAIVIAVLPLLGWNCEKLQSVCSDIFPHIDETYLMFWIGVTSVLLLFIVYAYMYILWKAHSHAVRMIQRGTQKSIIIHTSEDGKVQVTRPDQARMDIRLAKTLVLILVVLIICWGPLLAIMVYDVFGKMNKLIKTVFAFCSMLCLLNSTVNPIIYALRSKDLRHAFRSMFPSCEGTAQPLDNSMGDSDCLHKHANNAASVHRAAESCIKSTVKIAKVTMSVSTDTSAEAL
MEASURE: EC50 (µM)
One number for each entry, in µM.

query: Please tell me: EC50 of C=CCc1ccc(O)c(-c2cc(CC=C)ccc2O)c1 , system Cannabinoid receptor 1 (Homo sapiens, UniProt P21554)?
result: 18.3

----------
I'd appreciate it if you could supply Efficacy values for the items below.
target: Cannabinoid receptor 1 (Homo sapiens, UniProt P21554); assay: Agonist activity at recombinant human CB1 receptor expressed in CHO cells assessed as inhibition of forskolin-induced cAMP accumulation at 100 uM after 5 mins by cAMP-competition binding assay relative to CP55,940; assay type: functional, cell-based
Numbers only, in %.

Some compounds with recorded Efficacy:
{"STRUCTURE_AS_SMILES": "C=CCc1ccc(O)c(-c2ccc(O)c(CC=C)c2)c1", "Efficacy, %": 168}
{"STRUCTURE_AS_SMILES": "C/C=C/c1ccc(O)c(-c2cc(/C=C/C)ccc2O)c1", "Efficacy, %": 134}
{"STRUCTURE_AS_SMILES": "CCCc1ccc(O)c(-c2cc(CCC)ccc2O)c1", "Efficacy, %": 124}

query: Entry C=CCc1ccc(O)c(-c2cc(CC=C)ccc2O)c1 : reported Efficacy = ?
result: 62

----------
target: G-protein coupled receptor 55 (Homo sapiens); assay: Antagonist activity at human GPR55 expressed in CHO cells assessed as inhibition of LPI-induced beta-arrestin translocation at 10 uM after 90 mins by luminescence assay; type: cell-based
MEASURE: inhibition (%)
Answers are plain numbers, in %.

{"COMPOUND": "C=CCc1ccc(O)c(-c2cc(CC(O)CO)ccc2O)c1 (racemic)", "inhibition [%]": 4}

Please report inhibition for every entry that follows.
1. CCCc1ccc(O)c(-c2cc(CCC)ccc2O)c1
2. C=CCc1ccc(O)c(-c2cc(CC=C)ccc2O)c1
3. C/C=C/c1ccc(O)c(-c2cc(/C=C/C)ccc2O)c1

result:
1: 96; 2: 0; 3: 0

Please report inhibition for every entry that follows.
1. C=CCc1ccc(O)c(-c2ccc(O)c(CC=C)c2)c1
2. CCCCCCC(C)(C)c1ccc([C@@H]2C[C@H](O)CC[C@H]2CCCO)c(O)c1

result:
1: 42; 2: 92
